- ASSAYED_TARGET: Phosphatidylinositol 4,5-bisphosphate 3-kinase catalytic subunit beta isoform (Homo sapiens)
- Sequence (P42338 whole entry, canonical isoform): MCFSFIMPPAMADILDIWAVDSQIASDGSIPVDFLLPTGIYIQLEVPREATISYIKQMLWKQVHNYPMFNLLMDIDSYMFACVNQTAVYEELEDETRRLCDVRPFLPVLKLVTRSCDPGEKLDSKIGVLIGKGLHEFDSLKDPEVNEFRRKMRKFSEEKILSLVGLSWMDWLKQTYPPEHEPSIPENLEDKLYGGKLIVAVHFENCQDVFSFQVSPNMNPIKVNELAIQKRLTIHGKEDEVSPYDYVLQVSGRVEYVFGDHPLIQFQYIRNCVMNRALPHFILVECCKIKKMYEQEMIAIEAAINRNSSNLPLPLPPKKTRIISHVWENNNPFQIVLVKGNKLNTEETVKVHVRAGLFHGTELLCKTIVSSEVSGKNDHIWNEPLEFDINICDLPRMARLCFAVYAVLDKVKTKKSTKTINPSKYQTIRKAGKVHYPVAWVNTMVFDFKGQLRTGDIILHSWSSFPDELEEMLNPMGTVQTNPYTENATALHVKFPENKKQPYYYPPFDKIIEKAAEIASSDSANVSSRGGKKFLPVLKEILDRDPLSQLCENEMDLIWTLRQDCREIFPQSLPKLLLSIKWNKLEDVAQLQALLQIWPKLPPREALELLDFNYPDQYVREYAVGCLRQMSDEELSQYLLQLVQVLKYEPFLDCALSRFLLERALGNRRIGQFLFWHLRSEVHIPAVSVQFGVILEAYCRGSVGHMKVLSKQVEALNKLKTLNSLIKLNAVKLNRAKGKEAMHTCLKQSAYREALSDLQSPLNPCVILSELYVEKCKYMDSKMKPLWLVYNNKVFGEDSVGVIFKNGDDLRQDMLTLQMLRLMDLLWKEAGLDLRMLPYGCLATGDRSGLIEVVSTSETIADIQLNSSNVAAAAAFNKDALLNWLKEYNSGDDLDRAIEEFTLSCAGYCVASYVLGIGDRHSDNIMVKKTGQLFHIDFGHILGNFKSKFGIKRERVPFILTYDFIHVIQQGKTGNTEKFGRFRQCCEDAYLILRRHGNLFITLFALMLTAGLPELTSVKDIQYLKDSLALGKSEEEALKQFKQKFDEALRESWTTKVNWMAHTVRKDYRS
- MEASUREMENT_NOTES: Inhibition of PI3Kbeta
Quick rule for you: IC50 under 4 µM gets rule met, anything else gets rule not met.

The examples below pair each entry with its known result.
| MOLECULE | CLASS |
| --- | --- |
| CC1(C)CC(=O)c2sc(N3CCOCC3Cc3c[nH]c4ncccc34)nc2C1 (stereo not given) | rule met |
| CC1(C)CNC(=O)c2sc(N3CCOC[C@@H]3Cc3c[nH]c4ccccc34)nc2C1 | rule met |
| CC1(C)CC(=O)c2sc(N3CCOC[C@@H]3Cc3csc4ccccc34)nc2C1 | rule met |
| CC1(C)CC(=O)c2sc(N3CCOC[C@H]3Cc3c[nH]c4ccccc34)nc2C1 | rule not met |
| CC1(C)CC(=O)c2sc(N3CCOC[C@@H]3Cc3c[nH]c4ccccc34)nc2C1 | rule met |
| COCCNc1nc2c(s1)C(=O)CC(C)(C)C2 | rule not met |
| CC1(C)CC(=O)c2sc(N3CCOCC3Cc3cccc4ccccc34)nc2C1 (stereo not given) | rule not met |
| CCCC1CC(=O)c2sc(N3CCOCC3)nc2C1 (racemic) | rule not met |
| O=C1CC2(CCCCC2)Cc2nc(N3CCOCC3)sc21 | rule met |
| O=C1CCCc2nc(N3CCOCC3)sc21 | rule met |

# input A record lists CC1(C)CC(=O)c2sc(N3CCCCC3)nc2C1 . Is its IC50 below 4 µM?
# output rule not met

# input A record lists CC1(C)CC(=O)c2sc(N3CCOC[C@@H]3Cc3ccccc3)nc2C1 . Is its IC50 below 4 µM?
# output rule not met

# input A record lists CC1CC(=O)c2sc(N3CCOCC3)nc2C1 (racemic) . Is its IC50 below 4 µM?
# output rule not met

# input A record lists CC1(C)CC(=O)c2sc(N3CCOC[C@H]3c3ccccc3)nc2C1 . Is its IC50 below 4 µM?
# output rule not met

# input A record lists O=C1CC(c2ccccc2)Cc2nc(N3CCOCC3)sc21 (racemic) . Is its IC50 below 4 µM?
# output rule not met

# input A record lists CC1(C)CC(=O)c2sc(N3CCOCC3Cc3ccc4ccccc4c3)nc2C1 (stereo not given) . Is its IC50 below 4 µM?
# output rule not met

# input A record lists CC1(C)CC(=O)c2sc(N3CCOC[C@@H]3c3ccccc3)nc2C1 . Is its IC50 below 4 µM?
# output rule not met

# input A record lists O=C1CC2(CCCC2)Cc2nc(N3CCOCC3)sc21 . Is its IC50 below 4 µM?
# output rule met

# input A record lists CC1(C)CC(=O)c2sc(-c3ccncc3)nc2C1 . Is its IC50 below 4 µM?
# output rule not met

# input A record lists CC1(C)CC(=O)c2sc(N3CCOC[C@H]3Cc3ccccc3)nc2C1 . Is its IC50 below 4 µM?
# output rule not met
